Numbers sourced from PubChem BioAssay.

assay: small-molecule microarray binders of probe aWnt5a, primary screen, biochemical, biotinylated probe, 635/667 nm fluorescence (AID 1113);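 further: score merges 667 nm fluorescence intensity with signal-to-noise per printed feature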
assay setup: higher = more signal
readout label: composite z-score

- molecule: "Cn1c(=O)n2n(c1=O)[C@H]1[C@H](O)[C@@H]3O[C@@H]3C(=O)[C@H]1CC2"
  readout label: "composite z-score"
  value reported: -0.104
- molecule: "COC(=O)[C@@H]1CC[C@H](C)[C@@H](c2ccc(C)cc2)N1C(=O)c1ccc(C=NOCC[C@@H]2C=C[C@H](OC(C)=O)[C@@H](COC(C)=O)O2)cc1"
  readout label: "composite z-score"
  value reported: -0.0778
- molecule: "CON=C[C@@H](C)[C@H](OCc1ccccc1)C(C)C"
  readout label: "composite z-score"
  value reported: -0.0882
- molecule: "CO[C@@H]1C=CCC(=O)N[C@@H](C)C(=O)OC[C@@H](OC)[C@H](C)CCCC(=O)OC[C@H]1C"
  readout label: "composite z-score"
  value reported: -0.0694
- molecule: "CC(C)(C)N1C(=O)[C@H]2[C@H]3[C@H](O)[C@H](O)CC(=NOCc4ccccc4)[C@H]3CC[C@H]2C1=O"
  readout label: "composite z-score"
  value reported: -0.0125
- molecule: "Cc1ccc(S(=O)(=O)NC(CCc2ccccc2)CC(=O)C(C)(C)C)cc1 (stereo not drawn)"
  readout label: "composite z-score"
  value reported: -0.125
- molecule: "CCOC(=O)[C@H](CC(C)C)NC(=O)CCC1CC(OC(=O)NCc2ccc3c(c2)OCO3)CC2(CCCC(COC(=O)NCc3cccc(C(F)(F)F)c3)O2)O1 (stereo partly drawn)"
  readout label: "composite z-score"
  value reported: -0.148
- molecule: "CCCCc1nc2c(c3c1C[C@H](C)OC3)CN(CCOc1ccccc1)CC2"
  readout label: "composite z-score"
  value reported: -0.0738

----------
Tested on: Fibrinogen (Alexa647-labelled)
assay: fibrinogen binders on compound microarrays, profiling panel, artefact control for SMM control-protein annotation, biochemical, small-molecule microarray, 635/667 nm fluorescence (AID 1131);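 further: z-score merges 667 nm fluorescence with per-spot signal-to-noise over triplicate slides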
assay setup: fibrinogen-A647 binding fluorescence, higher = more signal
The threshold is inclusive: composite z-score of exactly 0.3 counts as yes (1); values below receive no (0).

- molecule: "C=CC[C@@H]1C=C[C@H](ON=C(C)CCN2CCc3nc(-c4ccccc4)c(-c4ccccc4)cc3C2)[C@@H](CO)O1"
  experimental target: "Fibrinogen (Alexa647-labelled)"
  group: "yes (1)"
- molecule: "CC(CCN1CCc2nc(-c3ccccc3)c(-c3ccccc3)cc2C1)=NOC[C@@H](O)COCc1ccco1"
  experimental target: "Fibrinogen (Alexa647-labelled)"
  group: "no (0)"
- molecule: "COC(=O)[C@@H]1CC[C@H](C)[C@@H](c2ccc(C)cc2)N1C(=O)c1ccc(C=NOC[C@@H](C)[C@H](OCc2ccccc2)C(C)C)cc1"
  experimental target: "Fibrinogen (Alexa647-labelled)"
  group: "yes (1)"
- molecule: "C#CCCCON=C1[C@H]2CCn3c(=O)n(C)c(=O)n3[C@H]2[C@H](O)[C@@H]2O[C@H]12"
  experimental target: "Fibrinogen (Alexa647-labelled)"
  group: "yes (1)"
- molecule: "COc1ccc(COC(=O)NN=C2C[C@@H](O)[C@@H](O)[C@@H]3[C@@H]4C(=O)N(c5cccc(Oc6ccccc6)c5)C(=O)[C@@H]4CC[C@@H]23)cc1"
  experimental target: "Fibrinogen (Alexa647-labelled)"
  group: "no (0)"
- molecule: "O=C1[C@H]2[C@H]3[C@H](O)[C@H](O)CC(=NOC[C@@H](O)COCc4ccco4)[C@H]3CC[C@H]2C(=O)N1c1ccc(F)cc1F"
  experimental target: "Fibrinogen (Alexa647-labelled)"
  group: "no (0)"
- molecule: "O=C1[C@H]2[C@H]3[C@H](O)[C@H](O)CC(=NOCc4ccccc4)[C@@H]3CC[C@H]2C(=O)N1C[C@@H]1CCCO1"
  experimental target: "Fibrinogen (Alexa647-labelled)"
  group: "no (0)"
- molecule: "C=CC1=C[C@H](O)[C@@H]2O[C@@H]2C12OCCCO2"
  experimental target: "Fibrinogen (Alexa647-labelled)"
  group: "yes (1)"
- molecule: "CO[C@H]1COC(=O)[C@@H]2CCCN2C(=O)CC=C[C@@H](C)[C@H](OC)COC(=O)[C@@H](OCc2ccccc2)C=C[C@@H]1C"
  experimental target: "Fibrinogen (Alexa647-labelled)"
  group: "no (0)"
- molecule: "CC(C)CON=C1C[C@@H](O)[C@@H](O)[C@@H]2[C@@H]3C(=O)N(C4CCCCC4)C(=O)[C@@H]3CC[C@@H]12"
  experimental target: "Fibrinogen (Alexa647-labelled)"
  group: "yes (1)"
- molecule: "CCOC(=O)[C@H](CC(C)C)NC(=O)CCC1CC(OC(=O)NCc2cccc3ccccc23)CC2(CCCC(COC(=O)NCc3cccc(C(F)(F)F)c3)O2)O1 (stereo not given in full)"
  experimental target: "Fibrinogen (Alexa647-labelled)"
  group: "yes (1)"
- molecule: "CO[C@H](C1CCCCC1)[C@H](C)C=CCC(=O)OCCCc1ccccc1"
  experimental target: "Fibrinogen (Alexa647-labelled)"
  group: "no (0)"
- molecule: "CO[C@H]1COC(=O)CC=C[C@@H](C)[C@H](OC)COC(=O)[C@@H]2CCCN2C(=O)CC=C[C@@H]1C"
  experimental target: "Fibrinogen (Alexa647-labelled)"
  group: "no (0)"
- molecule: "CCc1cc2c(nc1CC)CCN(CCC(C)=NO[C@H](C)c1cn([C@H](CO)Cc3ccccc3)nn1)C2"
  experimental target: "Fibrinogen (Alexa647-labelled)"
  group: "yes (1)"
- molecule: "Cn1c(=O)n2n(c1=O)[C@H]1[C@H](O)[C@@H]3O[C@@H]3C(=O)[C@H]1CC2"
  experimental target: "Fibrinogen (Alexa647-labelled)"
  group: "no (0)"
- molecule: "CC(C)=CCCC(C)=CCON=C1C[C@@H](O)[C@@H](O)[C@@H]2[C@@H]3C(=O)N(Cc4ccccc4)C(=O)[C@@H]3CC[C@@H]12"
  experimental target: "Fibrinogen (Alexa647-labelled)"
  group: "no (0)"
- molecule: "CCOC(=O)[C@H](CC(C)C)NC(=O)CCC1CC(OC(=O)NCc2cccc3ccccc23)CC2(CCCC(COC(=O)NCc3ccncc3)O2)O1 (stereo not given in full)"
  experimental target: "Fibrinogen (Alexa647-labelled)"
  group: "yes (1)"
- molecule: "CCN1C(=O)[C@H]2[C@H]3[C@H](O)[C@H](O)CC(=NOCC(C)C)[C@@H]3CC[C@H]2C1=O"
  experimental target: "Fibrinogen (Alexa647-labelled)"
  group: "no (0)"
- molecule: "O=c1n(Cc2cc3c(cc2Cl)OCO3)c(=O)n2n1CC[C@@H]1C(=NOC[C@@H](O)COCc3ccco3)[C@H]3O[C@H]3[C@@H](O)[C@@H]12"
  experimental target: "Fibrinogen (Alexa647-labelled)"
  group: "yes (1)"
- molecule: "Cn1c(=O)n2n(c1=O)[C@H]1[C@H](O)[C@@H]3O[C@@H]3C(=NOCc3ccccc3)[C@H]1CC2"
  experimental target: "Fibrinogen (Alexa647-labelled)"
  group: "no (0)"
- molecule: "O=C1C=C[C@@H](O)[C@@H]2[C@@H]3C(=O)N(c4ccc(F)cc4F)C(=O)[C@@H]3CC[C@@H]12"
  experimental target: "Fibrinogen (Alexa647-labelled)"
  group: "yes (1)"
- molecule: "COc1ccc(O[C@H]2C=C[C@@H](c3ccccc3)O[C@@H]2CON=C(C)C)cc1"
  experimental target: "Fibrinogen (Alexa647-labelled)"
  group: "no (0)"
- molecule: "C[C@H]1COC(=O)[C@@H]2CCCN2C(=O)[C@@H](C)COC(=O)[C@H](Cc2ccccc2)NC1=O"
  experimental target: "Fibrinogen (Alexa647-labelled)"
  group: "no (0)"
- molecule: "COC(=O)CC=C[C@@H](C)[C@@H](C=NO[C@H](C)c1cn([C@@H]2COC[C@H]2O)nn1)NS(=O)(=O)c1ccc(C)cc1"
  experimental target: "Fibrinogen (Alexa647-labelled)"
  group: "yes (1)"
- molecule: "COc1ccc(O[C@H]2C=C[C@@H](c3ccccc3)O[C@@H]2COC(=O)CCC(C)=NOC(C)CN2CCCc3nc(C)c(C)cc32)cc1 (stereo not given in full)"
  experimental target: "Fibrinogen (Alexa647-labelled)"
  group: "yes (1)"
- molecule: "O=C1[C@H]2[C@H]3[C@H](O)[C@H](O)CC(=NOCc4ccccc4)[C@@H]3CC[C@H]2C(=O)N1Cc1ccc2c(c1)OCO2"
  experimental target: "Fibrinogen (Alexa647-labelled)"
  group: "yes (1)"
- molecule: "O=C(NN=C1C[C@@H](O)[C@@H](O)[C@@H]2[C@@H]3C(=O)N(Cc4ccccc4)C(=O)[C@@H]3CC[C@@H]12)OCc1ccccc1"
  experimental target: "Fibrinogen (Alexa647-labelled)"
  group: "no (0)"
- molecule: "CCOC(=O)[C@H](CC(C)C)NC(=O)CCC1CC(OC(=O)NCCc2ccc(F)cc2)CC2(CCCC(COC(=O)NCC3CCCCC3)O2)O1 (stereo not given in full)"
  experimental target: "Fibrinogen (Alexa647-labelled)"
  group: "yes (1)"
- molecule: "COCOc1ccc(Br)cc1C(=O)[C@@H]1O[C@H]1c1cccc(OC)c1"
  experimental target: "Fibrinogen (Alexa647-labelled)"
  group: "yes (1)"
